- System: human liver carcinoma (HepG2) cells
- assay-name: Anticancer screening, SRB assay, HepG2
- Assay type: cell-based
- run-conditions: HepG2, 48 hours incubation, concentration not given
Label met for high-side % inhibition for cancer cells HepG2 (at or above 90%) and not met for low-side % inhibition for cancer cells HepG2 (below it).

Q: Record CC(C)Cc1cc(CNC(=O)C2C3CN(CCc4ccc(C(F)(F)F)cc4)CC32)nn1-c1ccccc1 (stereo not drawn) ; criterion: % inhibition for cancer cells HepG2 no lower than 90%. Met?
Result: not met

Okay, now this compound:
Q: Record CC(C)Cc1cc(C(=O)NCC2C3CN(CCC(C)(C)C)CC23)nn1-c1ccccc1 (stereo not drawn) ; criterion: % inhibition for cancer cells HepG2 no lower than 90%. Met?
Result: met

###

- Test system: human liver carcinoma (HepG2) cells
- assay-name: Anticancer screening, SRB assay, HepG2
- Type: cell-based
- run-conditions: HepG2, 48 hours incubation, concentration not given
recorded-endpoint: % inhibition for cancer cells HepG2 (%)
# number only, unit % dropped from output

Example results:
Q: Would you mind telling me what % inhibition for cancer cells HepG2 value was observed for CC(C)Cc1cc(CNC(=O)C2C3CN(C(=O)c4ccccc4)CC32)nn1-c1ccccc1 (stereo not shown) ?
Result: 89.44

Q: Would you mind telling me what % inhibition for cancer cells HepG2 value was observed for Cc1ccc(NC(=O)c2ccc(CN3CCN(C)CC3)cc2)cc1Nc1nccc(-c2cccnc2)n1 [Gleevec, reference compound] ?
Result: 90.81

Q: Would you mind telling me what % inhibition for cancer cells HepG2 value was observed for CC(C)Cc1cc(CNC(=O)C2C3CN(C(=O)Cc4ccccc4)CC32)nn1-c1ccccc1 (stereo not shown) ?
Result: 89.16

Here is another compound to look at.
Q: Would you mind telling me what % inhibition for cancer cells HepG2 value was observed for CC(C)Cc1cc(CNC(=O)C2C3CN(CCC(C)(C)C)CC32)nn1-c1ccccc1 (stereo not shown) ?
Result: 87.91
